I'd appreciate it if you could supply cytotoxicity values for the items below.
- test description: viability loss of HPDE-C7K cells – cell-based, fluorescence, HTS, primary screen (AID 431);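 further: 0% = DMSO solvent wells and 100% = doxorubicin-treated wells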
- condition description: HPDE-C7K KRASV12 cells, Alamar Blue viability, 48 h; at 10 µM; active compounds read high
In all, about 63,000 compounds went through this assay and about 1,100 (1.7%) were called active. For the sample, actives were picked, then their nearest neighbours and some compounds at random. Measured potencies and affinities stand elsewhere.
Answers are plain numbers, in %.

These recorded examples may help you get a feel for the data.
INSERT INTO measurements (compound, output_unit, test_value) VALUES
  ('O=C(COc1ccccc1)Nc1nc2ccccc2[nH]1', '%', -1.5),
  ('COC(=O)Nc1nc2ccc(Sc3ccccc3)cc2[nH]1', '%', 57.5),
  ('O=C(Nc1nc2ccccc2[nH]1)c1ccc(F)cc1', '%', -12),
  ('CCCC(=O)c1ccc(N2CCN(C(=O)c3ccc(Br)cc3)CC2)c(F)c1', '%', -6.7),
  ('CC(C)c1nnc(NC(=O)CCS(=O)(=O)c2nc(-c3cccs3)cc(C(F)(F)F)n2)s1', '%', 43.6);

Quick batch: cytotoxicity for everything below.
1. CN1CCN(c2nc(-c3cccs3)cc(C(F)(F)F)n2)CC1
2. O=C(CSc1nnc(CCc2nc3ccccc3[nH]2)n1-c1ccccc1)NCc1ccco1
3. COc1cc(S(=O)(=O)NCC2CCCO2)c(OC)cc1Cl (stereo unspecified)

// result
1. 3.2
2. -22.8
3. -5.9

List cytotoxicity for every entry below, keeping the order given.
1. CC1CCCCN1C(=O)CSc1nc(C2CC2)nc2c1cnn2-c1ccccc1 (stereo unspecified)
2. Cc1ccc(C(=O)C(C)OC(=O)C2CC(=O)N(C3CCCCC3)C2)cc1 (stereo unspecified)
3. COC(=O)Nc1nc2ccc(C(=O)c3ccccc3)cc2[nH]1

// result
1.1
-11.4
67.2
